Target: KRAS Q61H (Homo sapiens (Human), UniProt P01116+P62937, Q61H)
Sequence (P01116-2 other isoform, or with tags, fused parts or gaps Q61H): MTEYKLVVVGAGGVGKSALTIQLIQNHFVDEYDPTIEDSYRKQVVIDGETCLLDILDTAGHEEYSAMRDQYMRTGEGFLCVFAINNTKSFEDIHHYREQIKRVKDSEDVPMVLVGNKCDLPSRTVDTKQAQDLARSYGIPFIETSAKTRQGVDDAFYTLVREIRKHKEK
Sequence (P62937 whole entry): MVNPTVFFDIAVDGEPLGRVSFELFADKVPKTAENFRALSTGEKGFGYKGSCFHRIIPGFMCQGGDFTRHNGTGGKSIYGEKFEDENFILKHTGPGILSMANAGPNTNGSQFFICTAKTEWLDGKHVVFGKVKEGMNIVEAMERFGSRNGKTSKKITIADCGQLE
Experiment: Ras-Raf (BRAF RBD) disruption / FRET / MOA assay, KRAS Q61H
Type: biochemical
Details: Ras-Raf disruption/FRET/MOA assay; class symbols; read-out: KRAS Q61H FRET data IC50
Procedure: The purpose of this biochemical assay is to measure the ability of test compounds to facilitate ternary complex formation between a nucleotide-loaded Ras isoform and cyclophilin A; the resulting ternary complex disrupts binding to a BRAF^RBD construct, inhibiting Ras signaling through a RAF effector. […]. Compound is present in plate wells as a 10-point 3-fold dilution series starting at a final concentration of 30 μM. […]
metric.name: IC50

INSERT INTO results (compound, result) VALUES
  ('CCn1c(-c2cccnc2[C@H](C)OC)c2c3cc(ccc31)N1CCC[C@@H](C[C@H](NC(=O)[C@H](C(C)C)N(C)C(=O)C3(F)CCN(C(=O)C#CC(C)(C)N(C)C)CC3)C(=O)N3CCC[C@H](N3)C(=O)OCC(C)(C)C2)C1 (atropisomer, axis not shown) [Example A616]', '1 to 10 µM'),
  ('CCn1c(-c2cccnc2[C@H](C)OC)c2c3cc(ccc31)-c1csc(n1)C[C@H](NC(=O)[C@H](C(C)C)N(C)C(=O)N1CCC3(CC1)CN(C(=O)/C=C/CF)C3)C(=O)N1CCC[C@H](N1)C(=O)OCC(C)(C)C2 (atropisomer, axis not shown)', '0.01 to 0.1 µM');
